assay: Leishmania major promastigote growth inhibition, primary screen (AID 1063); settings: Leishmania major promastigotes, resazurin fluorescence viability; at 10 µM; stronger effect = higher value;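 also: promastigotes grown with compound for 44 hours at 28 °C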
Hit rate of the full screen: of about 200,000 compounds, about 18,000 (9%) were called active. This is one part of a sample in which actives are shown more often than they occur.

molecule | unit.of.measurement | inhibition
CCNC(=O)COC(=O)/C=C/c1c(C)nn(Cc2cccc(OC)c2)c1Cl | % | -3.81
O=C(CC(O)(C(F)(F)F)C(F)(F)F)Nc1ccc(Cl)c(Cl)c1 | % | 100
COc1ccc(NC(=O)Nc2ccc3nc(C)c(C)nc3c2)cc1 | % | 6.7
CC(C)NC(=S)NN=C1CCCCCCCCCCC1 | % | 18.9
CCOc1ccc(NC(=O)CN(C)CC(=O)NC(C)c2ccccc2)cc1OCC (stereo not drawn) | % | -1.35
CCN(CCn1cccn1)Cc1cn[nH]c1-c1ccc(OC)cc1F | % | 2.85
Cc1cc(Cl)ccc1OCCCC(=O)NCc1ccncc1 | % | -0.52
CC1(C)C(c2cccs2)=[N+]([O-])C2(CCCCC2=O)N1O (stereo not drawn) | % | -6.22

---

experiment: Leishmania major promastigote growth inhibition, primary screen (AID 1063); details: Leishmania major promastigotes, resazurin fluorescence viability; at 10 µM; stronger effect = higher value;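 also: promastigotes grown with compound for 44 hours at 28 °C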
In all, about 200,000 compounds went through this assay and about 18,000 (9%) were called active. This is one part of a sample in which actives are shown more often than they occur.
readout.kind: inhibition (%)

compound | numeric.readout
Brc1ccc2nc(N3CCCC3)sc2c1 | 17
N=c1c2c(-c3ccccc3)c(-c3ccccc3)oc2ncn1Cc1ccco1 | 33.3
Cc1ccccc1NC(=O)c1nn(-c2ccc(F)c(F)c2)ccc1=O | -0.26
COc1ccccc1CNC(=O)c1ccc(SC)cc1OC | 66.9
CCOc1ccc2nc(Cl)c(C3CC(c4ccccc4)=NN3C(=O)c3cccs3)cc2c1 (centres undefined) | 66.5
Fc1cc(F)c2nc(N3CCOCC3)sc2c1 | -5.44
Cc1cc(C)cc(C(=O)NCC(=O)OCC(=O)N2CCCCC2)c1 | -9.27
Cc1cc(OCCN2CCCC2)ccc1C(C)C | 96.4
FC(F)(F)c1cccc(NC(=S)Nc2cccc(Cl)c2)c1 | 75.6
COc1cccc(CN(C)CC(=O)Nc2ccccc2C(=O)Nc2ccccc2)c1 | 16.9
S=C(Nc1cccc(Cl)c1)Nc1ccc2cn[nH]c2c1 | 10.9
CNC(=O)c1ccsc1NC(=O)c1ccc(S(=O)(=O)N2CCc3ccccc32)cc1 | 89.2
COc1cc(SC)ccc1C(=O)NCCOc1ccccc1Cl | 1.79
Cc1cc2ccccn2c1C(=O)c1cccc(S(=O)(=O)N2CCOCC2)c1 | 15.2
Cc1cc(C)cc(NC(=O)Cn2cnc3c(nnn3Cc3ccc(F)cc3)c2=O)c1 | -2.51
CC1CC1C(=O)OCC(=O)c1c(N)n(C)c(=O)n(C)c1=O (centres undefined) | -4.6
Cc1nc([N+](=O)[O-])c(NCCCO)n1Cc1ccccc1 | 10.7
CN(C)S(=O)(=O)c1cccc(C(=O)Nc2cccnc2)c1 | -3.68
COC(=O)C1=C(C)Nc2ncnn2C1c1cccnc1 (centres undefined) | -4.12
CNC(=S)N/N=C/c1ccc(N2CCOCC2)s1 | 90.2
COc1cccc(CNC(=O)CCN2C(=S)NC(C)(C)CC2C)c1 (centres undefined) | -13.5
O=C(O)c1ccccc1-c1ccccc1C(=O)Nc1nccs1 | -1.78
NC(=O)c1c(Nc2nc3c(F)cccc3s2)sc2c1CCCC2 | 0.33
Cc1cccc(N2CCN(c3ccc(NC(=O)/C=C\C(=O)O)cc3)CC2)c1 | -2.44
CCOc1cccc(/C=N/NC(=S)NCCN2CCOCC2)c1O | 4.68
COc1ccc(N2CCN(C(=O)COc3ccc4c(C)cc(=O)oc4c3)CC2)cc1 | 1.16
O=C(c1cccnc1)N(c1cc2sc(=O)oc2c2ccccc12)S(=O)(=O)c1ccccc1 | 99.2
CCOC(=O)c1sc(NC(=O)C(CC)Sc2nccn2C)nc1C (centres undefined) | 9.41
Cc1cc(C)c2nc3nc(C)cc(C)c3c(N)c2c1 | 100
O=C(CNC(=O)COc1ccccc1)NCCc1ccccn1 | -2.06
CNC(=O)c1[nH]cnc1C(=O)N[C@@H](CC(C)C)C(=O)OCc1ccccc1 | 0.78
COc1ccc(C2CC(c3ccccc3)=NN2C(=O)c2ccc(Cl)c([N+](=O)[O-])c2)cc1 (centres undefined) | 31.9
Cc1nonc1NC(=O)CSc1nc2ccccc2cc1C#N | 1.85
COc1cc(OC)cc(C(=O)OCC(=O)Nc2sccc2C(N)=O)c1 | 18.3

---

experiment: Leishmania major promastigote growth inhibition, primary screen (AID 1063); conditions: Leishmania major promastigotes, resazurin fluorescence viability; at 10 µM; stronger effect = higher value;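 also: promastigotes grown with compound for 44 hours at 28 °C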
In all, about 200,000 compounds went through this assay and about 18,000 (9%) were called active. The full list was thinned out, with actives kept by preference.
Rule: inhibition below 10% gives Met, anything at or above gives Not met.

molecule | label.value
CN1C(=O)/C(=C\c2cc(Br)cs2)c2ccccc21 | Not met
CCN(CC(=O)NCCc1ccccc1)S(=O)(=O)c1ccccc1 | Met
CCOc1ccc(C(CC(=O)O)NC(=O)C23CC4CC(CC(C4)C2)C3)cc1OC (configuration not stated) | Met
CCSc1ccccc1C(=O)Nc1ccc2c(c1)OCO2 | Met
CCOc1ccc(NC(=O)CCC(=O)N/N=C/c2ccc([N+](=O)[O-])s2)cc1 | Not met
CCN(CC(=O)NCCc1ccccc1)S(=O)(=O)c1ccc(C)cc1 | Not met
NS(=O)(=O)c1ccc(NC(=O)COC(=O)CCc2c[nH]c3ccccc23)cc1 | Met
CC1CCC(NC(=O)C2c3ccccc3C(=O)N2Cc2ccc3c(c2)OCO3)CC1 (configuration not stated) | Not met
CCCCCC(=O)Nc1ccc(C(=O)N/N=C/c2ccc([N+](=O)[O-])cc2)cc1 | Not met
CCCNC(=O)CN(Cc1ccccc1F)S(=O)(=O)c1ccc(C)cc1 | Not met
NS(=O)(=O)c1ccc(NC(=O)COC(=O)c2ccco2)cc1 | Met
COc1ccc(C(=O)NCC(=O)N/N=C/c2ccc([N+](=O)[O-])s2)cc1OC | Not met

---

test: Leishmania major promastigote growth inhibition, primary screen (AID 1063); conditions: Leishmania major promastigotes, resazurin fluorescence viability; at 10 µM; stronger effect = higher value;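 also: promastigotes grown with compound for 44 hours at 28 °C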
The whole screen tested about 200,000 compounds, of which about 18,000 (9%) were called active. Shown is part of a subset that was picked to be rich in actives.
readout.kind: inhibition (%)

item.smiles | numeric.readout
CN(Cc1nc2ccccc2c(=O)[nH]1)Cc1cc(=O)oc2ccc3ccccc3c12 | 14.2
CN(C)C(=O)c1nc2ccc(Cl)cn2c1CN1CCN(c2ncccn2)CC1 | 7.72
COc1ccc(N(CC(=O)Nc2ccc(C)cc2C)S(=O)(=O)c2ccccc2[N+](=O)[O-])c(OC)c1 | 9.22
N=c1c2c3c(sc2ncn1N)CCCC3 | -4.1

---

assay: Leishmania major promastigote growth inhibition, primary screen (AID 1063); details: Leishmania major promastigotes, resazurin fluorescence viability; at 10 µM; stronger effect = higher value;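 also: promastigotes grown with compound for 44 hours at 28 °C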
Among all 200,000 compounds or so, about 18,000 (9%) were called active. Only a selection was taken, and actives are over-represented in it overall.

compound | inhibition
Cc1cccc(NC(=O)/C(=C\c2ccco2)NC(=O)c2ccccc2)c1 | 3.51% (inactive)
CC1=NNC(=O)C1CCC(=O)N/N=C\c1ccc(Cl)c(Cl)c1 (stereo not drawn) | -3.71% (inactive)
Nc1cc(C(F)(F)F)ccc1N1CCOCC1 | 0.97% (inactive)
Cc1cc(C(=O)COC(=O)C2CC2)c(C)n1-c1ccc(F)cc1 | -2.35% (inactive)
Cc1noc(C)c1/C=N/Nc1ccc2ccccc2n1 | 56.6% (active)
CCN(CC)Cc1nc2sc(C)c(C)c2c(=O)[nH]1 | -6.68% (inactive)
CCOc1ccc(C(=O)NC2CCN(CC(=O)NCc3cccs3)CC2)cc1 | -4.61% (inactive)
CC(NC(=O)c1cc(-c2ccccc2)on1)c1ccccc1 (stereo not drawn) | -7.18% (inactive)
O=C(Nc1ccc2ccccc2c1)/C(=C\c1ccc2c(c1)OCO2)NC(=O)c1ccco1 | 1.7% (inactive)
c1ccc(C(c2ccccc2)N2CCN(Cc3nnnn3C3CCCCC3)CC2)cc1 | 9.22% (inactive)
O=C(NCCCN1CCOCC1)c1cnn2c(-c3ccccc3)cc(-c3ccccc3)nc12 | 19% (inactive)
O=C(NCCN1CCOCC1)c1c(F)c(F)c(F)c(F)c1F | -4.01% (inactive)
O=[N+]([O-])c1ccc(F)cc1Oc1nc(-c2cccnc2)nc2ccccc12 | 16.9% (inactive)
O=C(NCCCn1ccnc1)c1cc(-c2ccccc2)on1 | 2.53% (inactive)
CCN(CC)CCCNC(=O)c1cc(-c2cccc(Cl)c2)on1 | 87.4% (active)
Cc1nc2ccccc2cc1C(=O)N/N=C/c1ccc([N+](=O)[O-])cc1 | -3.55% (inactive)
Cc1ccc(OCc2n[nH]c(=S)n2-c2ccc(C)cc2)cc1 | 1.58% (inactive)
CS(=O)(=O)N(CC(=O)N/N=C/c1ccccn1)c1ccc(Oc2ccccc2)cc1 | 32.9% (inactive)

meta.source: PubChem BioAssay AID1063
